Test: E. coli DRC41 culture turbidity changes, primary screen, E. coli filamentation inducer project, strain DRC41, OD650, 48 h (AID 1152);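 further: E. coli MC1000 strain DRC41 lacking acrAB efflux pump and sulA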
Conditions: E. coli DRC41 (acrAB sulA), higher = more signal, called active from +8 up or from −8 down
Class 1: z-score at least 0.7. Class -1: z-score below 0.7.

molecule: CCc1cccc(NC(=O)O[C@H]2[C@H](OC(=O)Nc3ccccc3)[C@@H](OC(=O)Nc3ccccc3)[C@@H](OC)O[C@@H]2CO)c1
category-label: -1
//
molecule: O=[N+]([O-])c1ccc(C[n+]2ccc3ccc(O)cc3c2)o1
category-label: -1
//
molecule: O=C/C=C/c1ccc(/C=C/c2ccccc2)cc1
category-label: 1

Query: For this molecule, is measured z-score 0.7 or higher? O=C(CS)NCCCCCNC(=O)[C@H]1C[C@H]2C(=O)N3CCC[C@H]3C(=O)N2[C@H]1c1ccc(O)cc1
Result: 1

Query: Kindly determine if z-score recorded for CO[C@]12C=C(Br)[C@@H](C[C@@H]1c1ccccc1)[C@@]1(CO1)C2=O is above or exactly 0.7.
Result: 1

Query: State whether the measured z-score reaches 0.7, counting equality as reaching it, for CCCC[C@@H]1C[C@H]1[C@@H](NC(=O)c1cccs1)c1ccc(Cl)cc1
Result: -1

###

Assay: binders of probe aFSTL3 on microarray, primary screen, stem cell growth factor project, biochemical, small-molecule microarray, fluorescence 635/667 (AID 1064);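 further: measures binding of the biotinylated anti-FSTL3 antibody to printed compounds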
Conditions: higher = more signal
Classify as follows. Reported composite z-score greater than or equal to 0.1: Yes. Reported composite z-score below: No.

Before answering, review these 3 worked examples.
compound: CN(C)C(=O)[C@@]1(Cc2ccccc2N=[N+]=[N-])N=C(c2ccc(OCCCO)cc2)O[C@H]1c1ccccc1CN=[N+]=[N-]
category-label: Yes
//
compound: C=CCC(OC(C)=O)[C@@H]1[C@@H](N(Cc2cccc3ccccc23)C(=O)Cc2ccc(F)cc2)c2cc(OCCCO)ccc2N1C(=O)Cc1ccc2ccccc2c1 (stereo not given in full)
category-label: No
//
compound: COC(=O)C(CC#Cc1ccc2c(c1)[C@]1(C(=O)N2)[C@H](C(=O)N2CCCCCCC2)[C@H]2C(=O)O[C@H](c3ccccc3)[C@H](c3ccccc3)N2[C@@H]1c1ccc(O)cc1)C(=O)OC
category-label: Yes

Query: Evaluate O=C1O[C@@H](c2ccccc2)[C@@H](c2ccccc2)N2[C@@H](c3ccc(O)cc3)[C@]3(C(=O)Nc4ccccc43)[C@@H](C(=O)N3CCN(c4ncccn4)CC3)[C@H]12 : composite z-score at minimum 0.1?
Result: No

Query: Could you tell me if the measured composite z-score of O=C1O[C@@H](c2ccccc2)[C@@H](c2ccccc2)N2[C@@H](c3ccc(OCCO)cc3)[C@]3(C(=O)Nc4ccc(C#CCCO)cc43)[C@@H](C(=O)N3CCN(c4ncccn4)CC3)[C@H]12 reaches 0.1 or more?
Result: No

Query: Does the compound COC(=O)C1=CC(c2ccc(CO)cc2)=CC(c2cccs2)N(Cc2cccc(OC(F)(F)F)c2)C=C1C(=O)OC (stereo not given) have recorded composite z-score that is 0.1 or more?
Result: No

Query: Could you verify whether the entry C=C(COC)C(=O)CC[C@H](OC(=O)c1ccccc1-c1ccccc1C(=O)O)c1cccc(OCCO)c1 shows composite z-score of no less than 0.1?
Result: No

Query: Item C=C(COC)/C(=C/C[C@@H](OC(C)=O)c1cccc(OCCO)c1)c1cc(C(=O)OC)ccc1OC with composite z-score of 0.1 or above?
Result: No

###

Experiment: Plasmodium falciparum growth inhibition, primary screen, strain 3D7, DAPI fluorescence, 100 nL (AID 1184);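 further: parasites grown inside human red blood cells in medium with human serum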
Settings: P. falciparum 3D7 growth, 3 d, higher = more signal
quantity-name: z-score

smiles-structure: C[C@@H]1CC[C@H]2C(=O)N3[C@@H](CC[C@@H](C)[C@@H]3c3cccc(N4CCOCC4)c3)C(=O)N2[C@H]1c1cccc(Br)c1
z-score: 0.656

Query: Endpoint output: z-score of C=CCc1cccc([C@H]2N[C@H](C(=O)O)CC[C@@H]2C)c1 . Value?
Result: -0.441

Query: Give the measured z-score of CO[C@H]1O[C@H](CO)[C@@H](OC(=O)Nc2ccc3c(c2)OCO3)[C@H](OC(=O)Nc2ccccc2)[C@@H]1OC(=O)Nc1ccccc1 .
Result: -1.76

###

composite z-score reference
Tested on: Human papillomavirus type 1a E7 protein (residues 1-88)
Assay: HPV1a E7 small-molecule binders, primary screen, biochemical, small-molecule microarray, residues 1-88, 635 nm (AID 1129)
Settings: small-molecule microarray binding, fluorescence 635 nm; higher = more signal
Answer with a number only.

Guide cases for composite z-score, answers given:
compound: COc1ccc(-c2ccccc2[C@@H]2N[C@H](C(=O)O)CC[C@H]2C)cc1
composite z-score: 0.449
--
compound: C=CCC(OC(C)=O)[C@@H]1[C@@H](N(Cc2ccc(-c3ccccc3)cc2)C(=O)c2ccc(C)cc2)c2cc(OCCCO)ccc2N1C(=O)c1ccc(-c2ccccc2)cc1 (some centres undefined)
composite z-score: 0.438
--
compound: CCN1C(C)=C(C(=O)OC)[C@@H](c2ccccc2)N2C(=O)[C@](O)(C(=O)OC)[C@@H](c3ccccc3)C(C(C)=O)=C12
composite z-score: 0.0108
--
compound: Cc1ccc(S(=O)(=O)N2[C@@H](c3ccccc3)C(C(=O)O)=CC[C@H]2c2ccccc2)cc1
composite z-score: 0.699
--
compound: CCCC=C(CCC)[C@@H](NS(=O)(=O)c1cccc(C(F)(F)F)c1)c1ccc(C(=O)OC)cc1
composite z-score: 0.4

Query: // lookup composite z-score for COc1ccc(CCN2C(=O)[C@@]3(c4ccc([N+](=O)[O-])cc4)CC(=O)N(CC45CC6CC(CC(C6)C4)C5)[C@@H]3c3ccc(CO)cc32)cc1
Result: 0.415

Query: Any idea what composite z-score was measured for COc1cc(Cc2cc3c(c(CCc4ccccc4)n2)[Si](C(C)C)(C(C)C)OC3)cc(OC)c1OC ?
Result: -0.162

Query: So what does the record say about composite z-score for C=CC[C@@]12N=C(c3ccc(OCCCO)cc3)O[C@@H]1c1ccccc1CN(Cc1ccccc1)C2=O ?
Result: 1.18

Query: Need composite z-score of C=CCNC(=O)[C@H]1[C@@H]2C(=O)O[C@@H](c3ccccc3)[C@@H](c3ccccc3)N2[C@@H](c2ccccc2OCCO)[C@]12C(=O)N(C(=O)OCCOC)c1ccc(C#CCNC(N)=O)cc12 , thanks.
Result: 1.17

###

Assay: FRG1 promoter luciferase signal modulators, primary screen, FRG1 inhibition for FSHD, cell-based, C2C12 myotubes, firefly/Renilla luciferase, luminescence (AID 1084)
Conditions: higher = more signal, called active from +8 up or from −8 down
Calls of active or inactive are those of the source.
quantity-name: z-score

Look over these answered cases.
molecule: Cc1cc(C)c(C(O)C2C=CC3C(=O)N(C)C(=O)C3N2N2CCCCC2)c(C)c1 (stereo unspecified)
observed: 0.251 (inactive)

molecule: O=C1OCCC=C[C@H]2OC34C=CCN(Cc5ccccc5)C(=O)[C@H]3N(CCO)C(=O)[C@@H]4C12 (stereo partly specified)
observed: 0.135 (inactive)

molecule: O=C1c2ccccc2[C@](Cc2ccccc2I)(C(=O)NCc2ccccc2)[C@H](c2ccc(CO)cc2)N1Cc1ccccc1C(F)(F)F
observed: -1.98 (inactive)

molecule: C=C[C@H](OC)[C@@H](OC(=O)Nc1ccc(SC)cc1)c1ccc(OC)c(O)c1
observed: 1.2 (inactive)

Query: Data request, read-out z-score, for [N-]=[N+]=Nc1ccccc1C[C@@]1(C(=O)N2CCOCC2)N=C(c2ccc(OCCCO)cc2)O[C@@H]1c1ccccc1N=[N+]=[N-]
Result: -1.36 (inactive)

###

Test system: PRMT1 (protein arginine N-methyltransferase 1)
Experiment: PRMT1 binders on small-molecule microarrays, primary screen, biochemical, small-molecule microarray, 635 nm fluorescence (AID 1088);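 further: binding of Prmt1 protein to compounds spotted on small-molecule microarray slides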
Conditions: small-molecule microarray binding, higher = more signal
quantity-name: composite z-score

Solved entries:
compound: C=CC[C@]1(C(=O)NCC(O)CO)N=C(c2ccc(OCCCO)cc2)O[C@H]1c1ccccc1 (stereo partly specified)
composite z-score: 0.16
//
compound: COCCCNC(=O)[C@@H]1c2ccccc2C(=O)N(CC23CC4CC(CC(C4)C2)C3)[C@H]1c1ccc(CO)cc1
composite z-score: 1.49
//
compound: [N-]=[N+]=Nc1ccccc1C[C@@]1(C(=O)N2CCOCC2)N=C(c2ccc(OCCCO)cc2)O[C@@H]1c1ccccc1N=[N+]=[N-]
composite z-score: 1.56
//
compound: C[N+](C)(C)CCCCNC(=O)[C@H]1C[C@H]2C(=O)NCC(=O)N2[C@H]1c1cccc(OCCO)c1
composite z-score: 1.54
//
compound: C=CCNC(=O)[C@H]1[C@@H]2C(=O)O[C@@H](c3ccccc3)[C@@H](c3ccccc3)N2[C@@H](c2ccccc2OCCO)[C@]12C(=O)N(C(=O)OCCOC)c1ccc(C#CCNC(N)=O)cc12
composite z-score: 1.55

Query: Entry CC(C)(C)OC(=O)CC[C@@]1(C(=O)NCc2ccccc2)N=C(c2ccc(OCCCO)cc2)O[C@@H]1c1ccccc1 has what composite z-score?
Result: 1.55

Query: Item under review: CO[C@H]1COC(=O)CC=C[C@@H](C)COC(=O)[C@@H](C)NC(=O)CC=C[C@@H]1C . Reported composite z-score?
Result: 1.53

Query: May I ask what composite z-score has been recorded for CO[C@H]1COC(=O)[C@H](CCSC)NC(=O)CC=C[C@@H](C)COC(=O)[C@@H](OCc2ccccc2)C=C[C@@H]1C ?
Result: 1.13

Query: Using the record for C[C@@H]1C=CCC(=O)OC[C@H]2O[C@@H](C=C[C@@H]2O)[C@H](C)C=CCC(=O)OC[C@H]2O[C@H]1C=C[C@@H]2O , report its composite z-score.
Result: 1.06

Query: Return reported composite z-score; argument: COc1ccc([Si](C)(C)[C@@H]2[C@@H](CCO)O[C@]3(C(=O)N(Cc4ccc(NC(=O)[C@H](C)O)cc4)c4ccccc43)[C@H]2C)cc1
Result: 1.47

Query: I have this compound here, C=CC[C@]1(C(=O)O)N=C(c2ccc(OCCCO)cc2)O[C@H]1c1ccccc1 , and I need its recorded composite z-score.
Result: 0.707
